# target_system: Adenosine receptor A2b (Homo sapiens) (UniProt P29275)
# Sequence (whole entry): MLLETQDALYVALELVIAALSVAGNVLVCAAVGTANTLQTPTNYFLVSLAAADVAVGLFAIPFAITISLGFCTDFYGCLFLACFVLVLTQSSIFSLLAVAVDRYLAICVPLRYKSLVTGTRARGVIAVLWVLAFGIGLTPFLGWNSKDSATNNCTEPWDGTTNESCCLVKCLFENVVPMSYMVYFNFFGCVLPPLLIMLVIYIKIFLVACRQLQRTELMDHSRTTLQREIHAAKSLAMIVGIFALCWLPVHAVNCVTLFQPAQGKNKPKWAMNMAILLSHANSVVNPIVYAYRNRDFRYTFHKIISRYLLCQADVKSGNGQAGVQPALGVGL
# experiment_summary: Antagonist activity at human adenosine A2B receptor
# Format: functional
Antagonist potency (inhibitory concentration) overview

Some compounds with known Antagonist potency (inhibitory concentration) results, for comparison:
CSc1nc(NC(=O)C(c2ccccc2)c2ccccc2)n2nc(-c3ccco3)nc2n1 : > 100 µM
COc1ccc(CCCn2ncc3c2nc(N)n2nc(-c4ccco4)nc32)cc1 : > 10 µM
Cn1cc2c(nc(NC(=O)Cc3ccccc3)n3nc(-c4ccccc4)nc23)n1 : > 10 µM

-- ask Need Antagonist potency (inhibitory concentration) of Nc1nc(Oc2ccccc2)nc2nc(-c3ccco3)nn12 , thanks.
-- reply 3.42 µM

###

# Species on record: Homo sapiens
# experiment_summary: Selectivity ratio of Ki for human adenosine A1 receptor to Ki for human adenosine A2A receptor
value_kind: Ratio Ki
Give the figure only, with no unit attached.

Nc1nc(N2CCN(C(=O)Cc3ccc(Cl)cc3)CC2)nc2nc(-c3ccco3)nn12 : 25
Nc1nc(N2CCCC2)nc2nc(-c3ccco3)nn12 : 33
CC(C)(C)OC(=O)NCCNc1nc(N)n2nc(-c3ccco3)nc2n1 : 91
CC(C)(C)OC(=O)NCC1CCC(CNc2nc(N)n3nc(-c4ccco4)nc3n2)CC1 (stereo unspecified) : 56
Nc1nc(N2CCN(Cc3ccccc3)CC2)nc2nc(-c3ccco3)nn12 : 47.5
Nc1nc(N2CCN(Cc3ccc(F)cc3)CC2)nc2nc(-c3ccco3)nn12 : 12.5

-- ask Need Ratio Ki of CC(C)(C)OC(=O)N1CCN(c2nc(N)n3nc(-c4ccco4)nc3n2)CC1 , thanks.
-- reply 257

-- ask Need Ratio Ki of NCCNc1nc(NCCN)n2nc(-c3ccco3)nc2n1 , thanks.
-- reply 0.3

###

Data export: Ki values recorded with Adenosine receptor A2a (Homo sapiens, UniProt P29274).
Sequence (P29274 whole entry): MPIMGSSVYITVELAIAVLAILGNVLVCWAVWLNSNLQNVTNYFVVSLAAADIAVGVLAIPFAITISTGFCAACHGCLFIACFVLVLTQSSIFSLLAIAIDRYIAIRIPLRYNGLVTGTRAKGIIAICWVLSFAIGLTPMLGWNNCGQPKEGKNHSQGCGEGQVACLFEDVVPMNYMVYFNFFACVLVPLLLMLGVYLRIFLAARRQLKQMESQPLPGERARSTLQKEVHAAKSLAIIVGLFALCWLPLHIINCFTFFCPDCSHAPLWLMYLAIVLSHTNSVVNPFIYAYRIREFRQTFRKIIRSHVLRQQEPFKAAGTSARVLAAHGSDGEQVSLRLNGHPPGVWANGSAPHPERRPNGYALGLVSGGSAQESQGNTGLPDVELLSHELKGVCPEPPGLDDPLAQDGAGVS
Response body: numeric value in nM, unit text excluded.

Some compounds with known Ki results, for comparison:
Nc1nc(N2CCN(Cc3ccc(Cl)cc3)CC2)nc2nc(-c3ccco3)nn12 : 102
Nc1nc(N2CCN(C(=O)Cc3ccc(Cl)cc3)CC2)nc2nc(-c3ccco3)nn12 : 39.1
Nc1nc(N2CCN(Cc3ccccc3)CC2)nc2nc(-c3ccco3)nn12 : 20.6

// below: Ki requested for another compound
-- ask Need Ki of CC(C)(C)C(=O)N1CCN(c2nc(N)n3nc(-c4ccco4)nc3n2)CC1 , thanks.
-- reply 58.4

###

# target_system: Adenosine receptor A3 (Homo sapiens) (UniProt P0DMS8)
# Sequence (whole entry): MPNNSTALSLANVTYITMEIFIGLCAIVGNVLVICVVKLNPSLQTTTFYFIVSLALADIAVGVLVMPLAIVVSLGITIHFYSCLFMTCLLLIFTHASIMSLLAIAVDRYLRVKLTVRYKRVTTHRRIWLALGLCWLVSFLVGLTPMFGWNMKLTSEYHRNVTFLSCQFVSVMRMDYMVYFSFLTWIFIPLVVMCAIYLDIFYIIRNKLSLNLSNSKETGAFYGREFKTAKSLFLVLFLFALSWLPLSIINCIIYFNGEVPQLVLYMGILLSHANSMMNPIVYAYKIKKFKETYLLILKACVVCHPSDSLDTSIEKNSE
# experiment_summary: Displacement of [I125]I-AB-MECA from human adenosine A3 receptor expressed in CHO cells at 10 uM by scintillation counting
# Format: cell-based
value_kind: Activity (%)
Response body: numeric value in %, unit text excluded.

Nc1nc(N2CCN(C(=O)C(c3ccccc3)c3ccccc3)CC2)nc2nc(-c3ccco3)nn12 : 40.6
CC(C)(C)C(=O)N1CCN(c2nc(N)n3nc(-c4ccco4)nc3n2)CC1 : 32.3
Nc1nc(N)n2nc(-c3ccco3)nc2n1 : 36.4
Nc1nc(N2CCN(Cc3ccc(F)cc3)CC2)nc2nc(-c3ccco3)nn12 : 71.3
CC(C)(C)OC(=O)NCCCNc1nc(N)n2nc(-c3ccco3)nc2n1 : 77.3
Nc1nc(N2CCN(C(=O)c3ccc([N+](=O)[O-])cc3)CC2)nc2nc(-c3ccco3)nn12 : 50.9

-- ask Need Activity of O=C(Nc1nc(O)nc2nc(-c3ccco3)nn12)c1ccccc1 , thanks.
-- reply 75.9

-- ask Need Activity of NCCNc1nc(NCCN)n2nc(-c3ccco3)nc2n1 , thanks.
-- reply 17.7

// data source = ChEMBL document CHEMBL1926574
